Where do these numbers come from? They come from the supplement of paper PMC12042874.

experiment: amyloid nucleation score (Sup35N fusion, yeast selection) (log enrichment); library NNK3; higher = more nucleation; inactive = no reads after selection;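 also: zero at mode of non-aggregating sequences after 7 days selection at 30°C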
endpoint-label: amyloid nucleation score

{"substance": "FNSNFHHSVNSVNGITFSEA", "amyloid nucleation score": "inactive"}
{"substance": "LLLNMM", "amyloid nucleation score": "inactive"}
{"substance": "VNCATWNLNFTRMFMACIGL", "amyloid nucleation score": 1.28}
{"substance": "VDKLFCWGLYGLATVDNRVY", "amyloid nucleation score": "inactive"}
{"substance": "CLYLAS", "amyloid nucleation score": "inactive"}
{"substance": "CFMSLLNF", "amyloid nucleation score": "inactive"}

Entry SSLKWYTHPAMCYAHTWSIT needs its amyloid nucleation score filled in; supply it. inactive

Entry ITQWWVYIKNF needs its amyloid nucleation score filled in; supply it. inactive

Entry KSYLAVVSYFGFTKKADPTG needs its amyloid nucleation score filled in; supply it. inactive

Entry YGGFLKFSRYGIGRYIHLQL needs its amyloid nucleation score filled in; supply it. inactive

Entry RFLFNKRL needs its amyloid nucleation score filled in; supply it. -0.029

Entry GFEDSSIT needs its amyloid nucleation score filled in; supply it. inactive

Entry IKQRDN needs its amyloid nucleation score filled in; supply it. inactive

Entry LGVRCYNFIRFKYLSCLRLP needs its amyloid nucleation score filled in; supply it. inactive

Entry YRYMVRITCGCFHAVNDT needs its amyloid nucleation score filled in; supply it. 1.19

Entry FNDSLSLTVTRVIF needs its amyloid nucleation score filled in; supply it. inactive

Entry NTSYLDASSNGNQRCIHSHK needs its amyloid nucleation score filled in; supply it. inactive

Entry VCTFTETHGTYLVFALYQPD needs its amyloid nucleation score filled in; supply it. 0.367

Entry LVVPGYNLL needs its amyloid nucleation score filled in; supply it. inactive

Entry ISSNLLHAVWYSHEPGW needs its amyloid nucleation score filled in; supply it. 1.81

###

assay: amyloid nucleation score (Sup35N fusion, yeast selection) (log enrichment); library NNK1; higher = more nucleation; inactive = no reads after selection
We use 0.4 as the dividing line for amyloid nucleation score: on or above the line is fulfilled, below is not fulfilled.

{"input-sequence": "GKNDLSMNIGELWASGRGVV", "cat": "fulfilled"}

Determine whether this sequence has amyloid nucleation score no lower than 0.4: SPFLSAFLSFLTSFYLIFMG not fulfilled

Determine whether this sequence has amyloid nucleation score no lower than 0.4: IRLNSFTIESKRMYGRDSDV fulfilled

Determine whether this sequence has amyloid nucleation score no lower than 0.4: VPTVCYFSNQVR not fulfilled

###

assay: amyloid nucleation score (Sup35N fusion, yeast selection) (log enrichment); library NNK2; higher = more nucleation; inactive = no reads after selection
Hi all, reminder that labels come from amyloid nucleation score, split as low bracket (below -0.3), middle bracket (-0.3 to below 0.4), high bracket (0.4 or more)

Some entries whose results are on file:
{"substance": "ALAACSNSRG", "cat": "high bracket"}
{"substance": "FSVRRLVDHFSNSMEDPHLP", "cat": "low bracket"}
{"substance": "IPLRHVLLVMQCRPAL", "cat": "high bracket"}
{"substance": "ILGDRSRSS", "cat": "middle bracket"}
{"substance": "CLSLFTSYV", "cat": "high bracket"}
{"substance": "TVSLYIDYPSVLGFPWSY", "cat": "low bracket"}

Form field 'band' for KKVVLRPS high bracket

Form field 'band' for LLYNGVILLECGWYMVSVAS middle bracket

Form field 'band' for RIENFVWC low bracket

###

experiment: amyloid nucleation score (Sup35N fusion, yeast selection) (log enrichment); library NNK2; higher = more nucleation; inactive = no reads after selection
Each entry below carries its recorded amyloid nucleation score.
Give the figure by itself; no unit, no explanation.

Known amyloid nucleation score results, listed for orientation:
{"substance": "IRPLFTVLGRKTRQIFTM", "endpoint-label": "amyloid nucleation score", "reading": -0.283}
{"substance": "YGSDALYWLVWVYV", "endpoint-label": "amyloid nucleation score", "reading": -0.016}
{"substance": "AGPDSVQCRCSLKSSEGSCG", "endpoint-label": "amyloid nucleation score", "reading": 6.78}
{"substance": "IGLKYSLWVVGFEVRLRCAD", "endpoint-label": "amyloid nucleation score", "reading": 3.86}
{"substance": "FYVRSSTYFFHVYNYL", "endpoint-label": "amyloid nucleation score", "reading": -0.387}
{"substance": "NILTRYS", "endpoint-label": "amyloid nucleation score", "reading": -0.013}
{"substance": "ACVTPTAARNQIPALIYDTS", "endpoint-label": "amyloid nucleation score", "reading": -0.135}
{"substance": "NRLERMLLTDTDVSEKGSLG", "endpoint-label": "amyloid nucleation score", "reading": -0.204}
{"substance": "CWVIKGRAKCV", "endpoint-label": "amyloid nucleation score", "reading": -0.26}
{"substance": "LCDLVKASSMFANGSDHFIV", "endpoint-label": "amyloid nucleation score", "reading": -0.569}

Entry WSMSVLVSPHVMFKNAMEVL needs its amyloid nucleation score filled in; supply it. 0.22

Entry LFCVDNVVKKGTVP needs its amyloid nucleation score filled in; supply it. -0.365

###

test: amyloid nucleation score (Sup35N fusion, yeast selection) (log enrichment); library NNK3; higher = more nucleation; inactive = no reads after selection
endpoint-label: amyloid nucleation score

{"substance": "FLSLWLCSRCVSKSCGGFML", "amyloid nucleation score": "inactive"}
{"substance": "FGMGKRLSNENMPLVSCTGL", "amyloid nucleation score": "inactive"}
{"substance": "NSKSVSWMFMPLQAFLCLIG", "amyloid nucleation score": "inactive"}
{"substance": "CRRVTKFESAFTWIFCKSCD", "amyloid nucleation score": -0.013}
{"substance": "LHALFVLSMGQA", "amyloid nucleation score": "inactive"}
{"substance": "GKPWCNYSDYFYCTLLVDCK", "amyloid nucleation score": -0.246}

Entry CPYLSSVLHDAQLKATFING needs its amyloid nucleation score filled in; supply it. 1.11

Entry DQRLFFGHGGFDAVSW needs its amyloid nucleation score filled in; supply it. inactive

Entry VWTGHCMASFVRFTCSVVDD needs its amyloid nucleation score filled in; supply it. inactive

Entry KMCIDFEPELYNLFLLAFHQ needs its amyloid nucleation score filled in; supply it. inactive

Entry DILFDGESLFPYTENSWETR needs its amyloid nucleation score filled in; supply it. inactive

Entry HLSSNVLNYVLNFHWFCNFG needs its amyloid nucleation score filled in; supply it. 0.836

Entry TGHSQSLVVLTCWCVLFHAR needs its amyloid nucleation score filled in; supply it. inactive

Entry YLASEVYRV needs its amyloid nucleation score filled in; supply it. inactive

###

assay: amyloid nucleation score (Sup35N fusion, yeast selection) (log enrichment); library NNK2; higher = more nucleation; inactive = no reads after selection
Hi all, reminder that labels come from amyloid nucleation score, split as low range: < -0.2; mid range: ≥ -0.2 and < 0.6; high range: ≥ 0.6

Some entries whose results are on file:
{"substance": "GQNRKLLDLIYRMLGSLLWH", "cat": "mid range"}
{"substance": "SGQRQLCVWCVCVAGGRIKL", "cat": "high range"}
{"substance": "GVKRLVTGVCNKYRDIFFVG", "cat": "low range"}

Form field 'band' for WSMVTVLRGDRG mid range

Form field 'band' for LSRRMDMRSSTSALHVSIQL high range

Form field 'band' for SLWNIVRCRVENDSSGTQGF low range

Form field 'band' for LGFDFSNVKRTGRVTFFDCM mid range

Form field 'band' for SSLVWLKMNGNGTKTVFMN high range

Form field 'band' for VVVNNGTGKVPFDDM low range

Form field 'band' for LVQFHRLPRTRWGEFVRGDH high range

Form field 'band' for TRRCIERNRNVLFFTFMCRL high range

Form field 'band' for DPKHATYAKQRSGMYRYGHW high range

Form field 'band' for STCLQD low range

Form field 'band' for LITRGCCL low range

Form field 'band' for NTLVSVYEYFSMWGRSCRWS mid range

Form field 'band' for CHLLSRSCKFYGD low range

Form field 'band' for YMTWQFITACMLTCSKSILS mid range

Form field 'band' for FSSSFVVWALYPVTFHLTRS mid range

Form field 'band' for FVNLRFSKVGWYDLF low range

Form field 'band' for PRPRWRYCFACRLAVFGTVG high range

Form field 'band' for VNIERGFLRLKRLD low range

###

assay: amyloid nucleation score (Sup35N fusion, yeast selection) (log enrichment); library NNK2; higher = more nucleation; inactive = no reads after selection
We use 0.7 as the dividing line for amyloid nucleation score: on or above the line is Met, below is Not met.

{"input-sequence": "SSRDKILTSMKIWMLRFLAN", "cat": "Not met"}
{"input-sequence": "SYNTHQLSRSPF", "cat": "Not met"}
{"input-sequence": "MSAPRMEQSWEHQQQRDHTC", "cat": "Not met"}
{"input-sequence": "SRNLGGNYGLGGWCNEEFRR", "cat": "Not met"}

Now look at this one.
Determine whether this sequence has amyloid nucleation score no lower than 0.7: RHHGVRIYMRNFGNVYVYIR Met
